Entry source: PubChem BioAssay AID1963839

Tested on: 817829-284-R-J1-PDC complex spheroid viability
test summary: Anticancer human tumor 817829-284-R-J1-PDC patient-derived colon adenocarcinoma cell line growth inhibition [POLQ]
study conditions: second compound 0.316 µM; first compound 3.16 µM; stronger effect = lower value
measurement type: viability, T/C (%)
I only need the number, in %, no unit after it.

Incoming: Returns the measured viability, T/C for the input compound. Input: C=CC(=O)N1CCN(c2nc(=O)n(-c3c(C)ccnc3C(C)C)c3nc(-c4c(O)cccc4F)c(F)cc23)C(C)C1 (stereo unspecified) + COC1C(OC(N)=O)C(O)C(Oc2ccc3c(O)c(NC(=O)c4ccc(O)c(CC=C(C)C)c4)c(=O)oc3c2C)OC1(C)C
Outgoing: 95.7

Incoming: Returns the measured viability, T/C for the input compound. Input: CC1COCCN1c1cc(-c2ccnn2C)c2ccnc(-c3ccn[nH]3)c2n1 (stereo unspecified) + Nc1ccc(C#CCN(C(=O)Cc2ncc(C(F)(F)F)cc2C(F)(F)F)c2ccc(F)cc2)nn1
Outgoing: 3.56

Incoming: Returns the measured viability, T/C for the input compound. Input: COc1cc2cc(C(=O)CCC(=O)O)sc2cc1OC + Cc1cccc(N(C)C(=O)C2C(O)CCN2c2nc(C)cc(C(F)(F)F)c2C#N)c1
Outgoing: 107

Incoming: Returns the measured viability, T/C for the input compound. Input: O=c1[nH]cc(F)c(=O)[nH]1 + Nc1ccc(C#CCN(C(=O)Cc2ncc(C(F)(F)F)cc2C(F)(F)F)c2ccc(F)cc2)nn1
Outgoing: 34

Incoming: Returns the measured viability, T/C for the input compound. Input: CCc1cc2c(N3CCc4c(cc(Cn5ccnc5)cc4-c4cn(C)nc4C(F)(F)F)C3=O)cc(C)nc2c(OC)n1 + Nc1ccc(C#CCN(C(=O)Cc2ncc(C(F)(F)F)cc2C(F)(F)F)c2ccc(F)cc2)nn1
Outgoing: 40.4

Incoming: Returns the measured viability, T/C for the input compound. Input: CC1COCCN1c1cc(C2(O)CC3CCC(C2)O3)c2cnn(-c3ccn[nH]3)c2n1 (stereo unspecified) + Cc1cccc(N(C)C(=O)C2C(O)CCN2c2nc(C)cc(C(F)(F)F)c2C#N)c1
Outgoing: 3.01

---

Would you mind telling me the reported pIC50 of each entry?
Test system: 817829-284-R-J1-PDC complex spheroid viability
test summary: Anticancer human tumor 817829-284-R-J1-PDC cell line growth inhibition [POLQ];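 note: spheroids exposed to compounds for 7 days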
study conditions: curve of first compound; second compound 3.16 µM
Here pIC50 is given on a logarithmic scale as minus log10 of the concentration in mol/L.

Incoming: Returns the measured pIC50 for the input compound. Input: O=C(Nc1ccc(O)c(NS(=O)(=O)c2ccc(F)cc2)c1)c1ccc(-c2ccccc2)cc1 + Cc1cccc(N(C)C(=O)C2C(O)CCN2c2nc(C)cc(C(F)(F)F)c2C#N)c1
Outgoing: 5.26

Incoming: Returns the measured pIC50 for the input compound. Input: O=C(c1cc(Cc2n[nH]c(=O)c3ccccc23)ccc1F)N1CCN(C(=O)C2CC2)CC1 + Nc1ccc(C#CCN(C(=O)Cc2ncc(C(F)(F)F)cc2C(F)(F)F)c2ccc(F)cc2)nn1
Outgoing: 5.37

Incoming: Returns the measured pIC50 for the input compound. Input: C=CC(=O)N1CCN(c2nc(=O)n(-c3c(C)ccnc3C(C)C)c3nc(-c4c(O)cccc4F)c(F)cc23)C(C)C1 (stereo not given) + Cc1cccc(N(C)C(=O)C2C(O)CCN2c2nc(C)cc(C(F)(F)F)c2C#N)c1
Outgoing: 5.14

Incoming: Returns the measured pIC50 for the input compound. Input: CC(C)n1c(=O)n(C)c2cnc3cc(F)c(-c4ccc(OCCCN5CCCCC5)nc4)cc3c21 + Cc1cccc(N(C)C(=O)C2C(O)CCN2c2nc(C)cc(C(F)(F)F)c2C#N)c1
Outgoing: 5.08

Incoming: Returns the measured pIC50 for the input compound. Input: Cn1ncnc1[C@H]1c2n[nH]c(=O)c3cc(F)cc(c23)N[C@@H]1c1ccc(F)cc1 + COC1C(OC(N)=O)C(O)C(Oc2ccc3c(O)c(NC(=O)c4ccc(O)c(CC=C(C)C)c4)c(=O)oc3c2C)OC1(C)C
Outgoing: 7.99

Incoming: Returns the measured pIC50 for the input compound. Input: CCc1cc2c(N3CCc4c(cc(Cn5ccnc5)cc4-c4cn(C)nc4C(F)(F)F)C3=O)ccnc2c(OC)n1 + Cc1cccc(N(C)C(=O)C2C(O)CCN2c2nc(C)cc(C(F)(F)F)c2C#N)c1
Outgoing: 5.61

Incoming: Returns the measured pIC50 for the input compound. Input: CC(C)n1c(=O)n(C)c2cnc3cc(F)c(-c4ccc(OCCCN5CCCCC5)nc4)cc3c21 + Nc1ccc(C#CCN(C(=O)Cc2ncc(C(F)(F)F)cc2C(F)(F)F)c2ccc(F)cc2)nn1
Outgoing: 5.01

Incoming: Returns the measured pIC50 for the input compound. Input: CCc1cc2c(N3CCc4c(cc(Cn5ccnc5)cc4-c4cn(C)nc4C(F)(F)F)C3=O)ccnc2c(OC)n1 + COC1C(OC(N)=O)C(O)C(Oc2ccc3c(O)c(NC(=O)c4ccc(O)c(CC=C(C)C)c4)c(=O)oc3c2C)OC1(C)C
Outgoing: 5.16
